# ASSAYED SYSTEM: hACSS-2 (Homo sapiens (Human), UniProt Q9NR19)
# Sequence (Q9NR19 whole entry): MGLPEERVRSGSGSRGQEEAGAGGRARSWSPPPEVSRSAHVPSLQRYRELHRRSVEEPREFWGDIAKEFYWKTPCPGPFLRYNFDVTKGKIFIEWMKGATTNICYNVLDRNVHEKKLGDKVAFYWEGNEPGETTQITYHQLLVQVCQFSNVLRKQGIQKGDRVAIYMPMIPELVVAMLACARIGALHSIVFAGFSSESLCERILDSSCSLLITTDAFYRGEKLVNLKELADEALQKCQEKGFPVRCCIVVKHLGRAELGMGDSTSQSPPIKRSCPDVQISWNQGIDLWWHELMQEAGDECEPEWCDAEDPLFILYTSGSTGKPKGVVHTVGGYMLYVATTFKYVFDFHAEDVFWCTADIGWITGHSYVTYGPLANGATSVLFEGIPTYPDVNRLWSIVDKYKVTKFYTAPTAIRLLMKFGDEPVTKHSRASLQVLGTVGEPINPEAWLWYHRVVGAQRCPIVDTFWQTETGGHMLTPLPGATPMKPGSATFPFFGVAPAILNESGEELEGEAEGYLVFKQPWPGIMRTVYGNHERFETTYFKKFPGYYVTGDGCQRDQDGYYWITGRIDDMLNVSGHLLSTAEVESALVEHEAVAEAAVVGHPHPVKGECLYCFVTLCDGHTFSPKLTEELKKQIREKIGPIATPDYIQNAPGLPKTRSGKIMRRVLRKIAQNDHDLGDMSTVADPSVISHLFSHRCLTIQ
# MEASUREMENT PROTOCOL: Surface plasmon resonance (SPR) binding to immobilized hACSS-2
# COND: 1:1 binding model, mean, n = 3
READOUT: kon (M⁻¹ s⁻¹)
Response body: numeric value in M⁻¹ s⁻¹, unit text excluded.

• N[C@H](C(=O)N1CCCC(c2ccccc2)(c2ccccc2)C1)C1CC1 [AD-8007] = 4790

// query # return recorded kon for input O=C(CC1CCNC1)NCCC(c1ccccc1)c1ccccc1 (stereo not shown) [AD-8972]
// result 2830

// query For Cc1cccn2c(CC(=O)NCCC(c3ccccc3)c3ccco3)cnc12 (stereo not shown) [AD-3766] , write its kon.
// result 5010

// query State, in one line, measured kon of CN1CCC(O)(C(=O)NCCc2ccccc2Oc2ccccc2)CC1 [AD-7346]
// result 10100

* * *

# ASSAYED SYSTEM: hACSS-2 (Homo sapiens (Human))
# MEASUREMENT PROTOCOL: Surface plasmon resonance (SPR) binding to immobilized hACSS-2
# COND: Langmuir isotherm equilibrium fit, mean, n = 3; read-out: KD [μM] equilibrium
READOUT: Kd (µM)
Field format: number, assumed µM, no unit text.

Some compounds with recorded Kd:
- O=C(CC1CCNC1)NCCC(c1ccccc1)c1ccccc1 (stereo not shown): 124
- Cc1cccn2c(CC(=O)NCCC(c3ccccc3)c3ccco3)cnc12 (stereo not shown): 70.6
- CN1CCC(O)(C(=O)NCCc2ccccc2Oc2ccccc2)CC1: 39.8

We now examine a further compound.
// query Specify reported Kd for the compound shown: N[C@H](C(=O)N1CCCC(c2ccccc2)(c2ccccc2)C1)C1CC1
// result 117

* * *

# Test system: MDR1
# MEASUREMENT PROTOCOL: in vitro
# COND: dog, MDCK-MDR1, pH 7.4, Mean % Solution Recovery B to A
READOUT: recovery at 1.5 h, 2 μM (%)
Express the result in % but write the number alone.

// query Give recovery at 1.5 h, 2 μM for N[C@H](C(=O)N1CCCC(c2ccccc2)(c2ccccc2)C1)C1CC1 [AD-8007]
// result 97

* * *

# Tested on: MDR1
# MEASUREMENT PROTOCOL: in vitro
# COND: dog, MDCK-MDR1, pH 7.4, Mean % Solution Recovery A to B
recovery at 1.5 h, 2 μM overview

* COCCc1ccc(OCC(O)CNC(C)C)cc1 (centres unmarked) [Metoprolol, reference compound] | 94.2%

Consider now this further molecule.
// query Quote recovery at 1.5 h, 2 μM reported for N[C@H](C(=O)N1CCCC(c2ccccc2)(c2ccccc2)C1)C1CC1 please.
// result 81.3%

* * *

As shown below, each of these molecules has a reported half-life at 2 µM value.
# MEASUREMENT PROTOCOL: Human plasma stability
# Type: in vitro ADME
# COND: both sexes, 37° C., up to 120 min, read-out: Human Plasma Stability T1/2

Recorded half-life at 2 µM, per entry:
• Cc1cccn2c(CC(=O)NCCC(c3ccccc3)c3ccco3)cnc12 (stereo not drawn) = > 4.82 h
• N[C@H](C(=O)N1CCCC(c2ccccc2)(c2ccccc2)C1)C1CC1 = > 4.82 h

Next item in the queue.
// query Please indicate half-life at 2 µM recorded for CC(C)[N+](C)(CCOC(=O)C1c2ccccc2Oc2ccccc21)C(C)C [Propantheline Bromide, Propantheline bromide, reference compound]
// result 0.31 h
